Each item that follows carries a reported Kd.
system: T1, human SETD3 histidine methyltransferase (human, UniProt Q86TU7 1-594)
T1 construct: SETD3, human; In the ITC SETD3 was preincubated with SAH; also called recombinant human SETD3; source: E. coli BL21(DE3), purified (HisTrap FF, dialysis)
T1 sequence (looked up): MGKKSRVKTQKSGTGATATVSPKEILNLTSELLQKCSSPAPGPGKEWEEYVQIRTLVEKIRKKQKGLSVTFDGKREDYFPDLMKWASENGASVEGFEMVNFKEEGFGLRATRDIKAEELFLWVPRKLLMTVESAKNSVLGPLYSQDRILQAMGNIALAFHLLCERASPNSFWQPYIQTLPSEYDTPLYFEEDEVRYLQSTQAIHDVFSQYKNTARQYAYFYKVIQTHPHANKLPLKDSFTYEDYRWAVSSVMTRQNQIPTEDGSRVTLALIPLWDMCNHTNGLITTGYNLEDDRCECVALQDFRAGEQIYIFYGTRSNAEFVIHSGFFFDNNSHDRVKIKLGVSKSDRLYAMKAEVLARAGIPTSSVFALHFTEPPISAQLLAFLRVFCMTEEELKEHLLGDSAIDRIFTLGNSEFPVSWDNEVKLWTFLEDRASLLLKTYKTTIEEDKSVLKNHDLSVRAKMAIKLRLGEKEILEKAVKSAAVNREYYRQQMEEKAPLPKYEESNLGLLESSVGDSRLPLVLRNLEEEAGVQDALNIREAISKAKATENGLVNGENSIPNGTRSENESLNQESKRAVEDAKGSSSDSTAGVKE
assayMethodText: ITC; βA peptides (700-850 µM) titrated into SETD3 (30 µM) preincubated with SAH (350 µM) for 1 h; 20 mM Tris, 200 mM NaCl, pH 8.0; MicroCal PEAQ-ITC; One Set of Sites model
experimentalConditions: both partners purified
Positions of bridges follow the written chain, without caps; N, C: chain ends. No end group written: not given here.
Form entry: value (µM) — number only.

| binder | unitOfMeasure | Kd |
| --- | --- | --- |
| TLKYPIEHGIVTNWDD-NH2 [linear β-actin peptide (βA-H73, natural sequence)] | µM | 2.46 |

Ask: # Kd lookup, item TLKYPIEHGKVTNWDD-NH2 (lactam 7-10) [stapled βA peptide 9 (cyclic lactam, Glu72-Lys75)]
Reply: 24

These measurements were taken from paper PMC11531485.
